Recorded PBM binding z-score values for a group of sequences are listed next.
system: LXRa homodimer (NR concentration 270 nM); experiment: PBM binding z-score (relative to random genomic background probes); higher = stronger binding; sequences stand for … in GC…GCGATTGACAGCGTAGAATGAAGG
observable: PBM binding z-score

query.sequence | endpoint.value
GCGACTGGGGCATCAGCAGGTTACCATTACTTAA | -0.0382
TAGCCTAGGTCATGCTGGCCAGTATAGTGTCGGC | 0.0898
CCTGCTAGGTCGTGGTCAGCTAATCTACAGTATG | -0.589
ACTATTAGTTGAGAAGAGGGCAACCGATAGGTTG | 0.0723
TCTTGCAGATCAAAGGTTAAGAAAGCCGAAGCCT | -0.333
GGAACGAGGGCCTTCGAGTTGATAGCATGGCGAT | -0.648
ATCGATAGGTCGACGAGGTGAGTATACACCGTTT | -0.525
TAGCCTAGGTCATTCAGGGGCCTGTATAGAAAGC | 0.422
GATACAGGGTCAGCTAGAGGCCAGTGTATGGAAA | -0.408
AGAATGAGGTTATTAATATCAGGGAATTGCGGTC | 0.394
TCATATAGGTAATACAGGTAAAAGTCGGCATCTA | 0.377
ATATGTAGGTTATCGGGTCATTAAGTTTGCGCAT | 1.77
TCTAGTTGGTCACGGAGGTCACACACGACGGGTA | 2.59
TCAAATAGGTAAATGCTAGGTGAAAGTCCGATCT | -0.0235
TCATAGAGGTAAAGGTGAAAGTCGAACGATATGA | -0.575
CCTATTGGGCCAAAGGTCATTGATTCCAATGCTC | 4.17
CGAACTAGGTCATTGACAAGACAGTGAATAGTAA | 0.115
GCGACTGGTGCATCAGCAGGTTACCATAACTTAA | -0.541
TAGCATAGGTCATGGGCCAGTATACCACGCGAAC | 0.897
CCTTACGGGTCACTCCAGGTTACAGCATCGGAGT | 2.06
TCAAGCAGGCCAGAGGGTCACTCAAGAGGTACGG | -0.238
CATACTAGGTCAAGGTCAAAGTCGGTTTGTGCCA | 5.27
CCAGACAGGTGAGAAGGTAACTGAGCCTCGATTA | -0.12
CGCGAAAGGTCGTGCTCAGGTGAGTATACCAAAC | 0.199
AATACAGGGTCACTAGGCGAGAGTAGGTACGAAT | 1.02
CCTACTGGGCCAAGGCCATTGATCAGTCAAAGCA | -0.664
TTACCAAGGTGAGCAGAGGTCGTTGATCCAACTC | -0.283
TTACCAAGGTGAAAGGACGTTGATGCACGCCTTG | -0.414
TAGCCAAGGTCATGGGCCAGTATACCACGCGAAC | 0.809
CCTTACGGGTCACTCCAGGCTATAGCATCGGAGT | -0.324
ACTAGTTGGTCCGCTGAGGTCACACACAATTCGG | 1.91
CAAACTAGGTGACAGAGGTCAAAGTCCGTGCGTA | 4.88
GTACCACGGTGAATAGGTCGTTGATGAGTAGGCG | -0.237
TCTGCTAGGTCAGTTGGTCAGCCAACGAGCTGCC | -0.677
ATCTCTAGGTAAAGTTCAGAGAAAGATCGATAGA | 1.72
TCGCGGAGGACACGAAGGTCAGAGCTTTCCAGAG | 0.0426
TCATTTAGGTAAATGCTAGGTGAAAGTCCGATCT | 0.0938
CCTACTGCGCCAAGGTCATTGATCAGTCAAAGCA | 2.13

----------
test system: PPARg:RXRa IVT, anti-PPARg (NR concentration 270 nM, RXRa partner concentration 90 nM); experiment: PBM binding z-score (relative to random genomic background probes); higher = stronger binding; sequences stand for … in GC…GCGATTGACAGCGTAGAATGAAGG
Recorded PBM binding z-score values for a group of sequences are listed next.
observable: PBM binding z-score

query.sequence | observable | endpoint.value
TAGCCTAGGTCATGGGGCAGTATACCACGCGAAC | PBM binding z-score | 3.74
CTCGAAAGGTCGTGCTCACGTGAGTATACCAAAC | PBM binding z-score | 1.55
TAGCCTAGGTCAGATCGGGCCAGTAGACGCTATA | PBM binding z-score | 1.03
CCTCGGGGGACAGAAGGTCAGAGCTGTCCGCTTT | PBM binding z-score | 1.38
AGAATGAGGCTACCAAAGATCAGGGAAACGCTTG | PBM binding z-score | 0.854
TCGGCTAGGTCAGTTGGTCAGCTAACGAGCTGCC | PBM binding z-score | 1.9
CCCATTAGTTGACCATAAGGGCAACCGAAGCTCG | PBM binding z-score | 0.593
CCTAGCAGGCCAATCTGGTTCACTCAAGGCTTGA | PBM binding z-score | 0.21
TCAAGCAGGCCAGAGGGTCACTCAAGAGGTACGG | PBM binding z-score | 0.884
TGAATGACGTTATAAGATCAGGGAACGTTGCAAA | PBM binding z-score | -0.257
CATACAGGGTCAGCTAGGCCAGAGAAGGGACGGC | PBM binding z-score | 2.58
AGAATGAGGTTATATGTAGATCAGGGAAGAAAGT | PBM binding z-score | 2.52
CCTTACGTGTCACTCCAGGTTATAGCATCGGAGT | PBM binding z-score | 1.44
ACTAGCAGGCCAGGTTTGGGTCACTCAAACAAAG | PBM binding z-score | 0.446
ATCGAAAGGTCGAGGTGAGTTTAGAGAAAGGGAA | PBM binding z-score | 2.26
TTACCAAGGTGAAGGTCGTTGCTCCCTCTGTAGA | PBM binding z-score | 3.56
CCTTACGGGTCAAGGTTATAGCGCGGGTGGTACG | PBM binding z-score | 3.57
TCGTGTAGATCAGCAGGTTAAGAAAGCTGGCCAA | PBM binding z-score | -0.357
TCTAGCAGGCCAGAGGGTCACTCAAGAGGTACGG | PBM binding z-score | 0.645
CATACTGGGCCAAAAAGGTCATTGATGCCGATAA | PBM binding z-score | 3.71
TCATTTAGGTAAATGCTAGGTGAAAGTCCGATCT | PBM binding z-score | 2.44
CCGACTGGGTCATAAGGTTACCATAAGCCAGCCC | PBM binding z-score | 5.58
ACTATTAGTTGAGACAAGGGCAACCGATAGGTTG | PBM binding z-score | 0.38
ACAGACAGGTGACGAAGGTAACTCAGGCTATCAT | PBM binding z-score | 1.19
CCTCGGAGGACAGAAGGTCAGAGCCGTCCGCTTT | PBM binding z-score | -0.13
TCTAGTTGGTCACGGAGGTCACAGACGACGGGTA | PBM binding z-score | 4.51
GCATATAGGTAATACAAGGTGAAGGTCCGATTGT | PBM binding z-score | 3.17
GCTGGCAGGCCATTTGGGTCACTCAATGACGGGC | PBM binding z-score | 1.63
TAGCCCAGGTCATTCAGGGGCCAGTATAGAAAGC | PBM binding z-score | 2.16
ATATGTAGGTTAAGGCTCATTCAGGTTGGTTCGC | PBM binding z-score | 7.12
CCTAGTTGGTCAGGAGGTCACACGCCGGATATGA | PBM binding z-score | 3.74
GGAACGAGGGCAAGTCGATAGCAGAGTTTGATGG | PBM binding z-score | 2.5
GCTCGGAGGACAAGGTCAGAGCATTGTCCGTAGA | PBM binding z-score | 0.996
GCGACTGGAGCATCAGCAGGTTACCATAACTTAA | PBM binding z-score | 0.0135
CGAACGAGGGCATGAGTGGATAGCAAATGCCGAT | PBM binding z-score | 1.85
TCTCGGAGGACACGAAAGGTCAGAGATCGACATC | PBM binding z-score | 1.91
ACTCACGGGTCAACGAGGTTATAGCACGCGTATA | PBM binding z-score | 2.88
CCTTACGGGTCACTCCAGGTTGTAGCATCGGAGT | PBM binding z-score | 3.11

----------
system: RARg homodimer (NR concentration 270 nM); test: PBM binding z-score (relative to random genomic background probes); higher = stronger binding; sequences stand for … in GC…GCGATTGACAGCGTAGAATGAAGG
PBM binding z-score vs 0.5: at or above is criterion met, below is criterion not met.

query.sequence | cat
ACTATTAGTTGAGACGAAGGCAACCGATAGGTTG | criterion not met
ATCTCTAGGTAAAGATAGTTCACTGAATGCAAAT | criterion met
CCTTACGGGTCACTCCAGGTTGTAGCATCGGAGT | criterion met
GCTGCTAGGTCAACAGATGGTCAGCTAAAGCTCG | criterion met
CCTACTGGGCAAAAGGTCATTGATTCCAATGCTC | criterion met
GATACAGGGTCAGCCAGAGGCCAGAGTATGGAAA | criterion met
GCTTGTAGATTAAGGTTAAGAAAGACTAAGCTAA | criterion not met
TCGAGTAGGTTAGTCGGGCCATTCAGCCAACATA | criterion not met
TCTATTAGTTGAAGGCCAACCGACGAGTCCGTTT | criterion not met
ACTAGTTGGTGAGCTGAGGTCACACACAATTCGG | criterion met
CGAACGAGGGCATGAGTTGATCGCAAATGCCGAT | criterion met
TGATATAGGTAAAGGTGAAAGTCGAACGATATGA | criterion met
TCTCGGAGGACACGAAGGGCAGAGCTTTCCAGAG | criterion met
AAAATGAGGTTATTAAGATCAGGGAATTGCGGTC | criterion met
CCTACTGGGCCACGAAAAGTCATTGATTCAGTGA | criterion not met
CCTGCTAGGTCCATGGTCAGCTAAAGCAGCTCGC | criterion not met
GCTAGGAGGCCATTTGGGTCACTCAATGACGGGC | criterion met
TCATATAGGTAGACAGGTGAAAGTCCGTAAGTTA | criterion not met
TAAGACAGGTGAAGGTAACTCAGGTACGCAGTCG | criterion met
TATACAGGGTCAATGGCCAGAGTACGAATGTCGA | criterion met
CCAGCCAGGTGAAAGGTAACTCAGTCTGGTACGC | criterion not met
CTCGCAAGGTCGTGCTCAGGTGAGTATACCAAAC | criterion met
ATCTCTAGGTAACAAGTTTAGTGAAAGAGAGGAC | criterion met
AGAATGAGGTGATTAAGATCAGGGAATTGCGGTC | criterion not met
GCTGCTAGGTCAGTTTGGTCAGCTAACGGGTACG | criterion met
ACTAGCAGGCCAAGTTTGGGTCGCTCAAACAAAG | criterion not met
ATATGTAGGTTATGGGTCATTCAGGTTGGTTCGC | criterion met
ACTATTAGTTGACTTAGGCCAACCGATACGACGC | criterion met
CCTAGCAGGCCAGGGTCTCTCAAGCATTTCGCTT | criterion not met
GCTAGTTGGTCAGTAAAAGGTCACAGACCGGTCG | criterion met
CCTAGTTGGTCAAGAGGTCACACACCGGATATGA | criterion met
CGAACTAGGTCATCCAGGACAATGAATACATTGA | criterion met
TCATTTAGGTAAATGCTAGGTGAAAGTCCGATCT | criterion not met
CCTTACGGTTCAAGGTTATAGCACGGGTGGTACG | criterion met
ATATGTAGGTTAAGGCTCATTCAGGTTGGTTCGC | criterion met
CGTCCACGGTCATAGGAGGTCAGTGAAGACAGAT | criterion met
TCTTGGAGATCAAGCAGGTTAAGAAAGCCTGAGT | criterion not met
CCAGACAGGTGACAGGTAACTCAGTCTGGTACGC | criterion met
CCTATTAGATGACCATAAGGGCAACCGAAGCTCG | criterion met
CGTCCAAGGTCAAAGGTCGGTGAAGAGATGACGG | criterion met
ATCGCAAGGTCGACGAGGTGAGTATACACCGTTT | criterion met
CTCGAAAGGTCGGTTGCGGTGAGTATACGGATAA | criterion met
AGTCAAGGTTCATCTAGGTAACGTAAGATATGCT | criterion met
CCTAGCAGGCCAGGGTCACTGAAGCATTTCGCTT | criterion met
ATCTCTAGGTAAGGCTCAGTTCAGTGAAGAACGC | criterion not met
